Listed below: viability, T/C values for each entry.
System: 292921-168-R-J2-PDC complex spheroid growth
Method Summary: Anticancer human tumor 292921-168-R-J2-PDC patient-derived pancreatic carcinoma cell line growth inhibition [AhR]
Stated Conditions: second compound 0.316 µM; first compound 0.1 µM; stronger effect = lower value
Give the value, in units of %, as a plain number.

Before answering, review these 5 worked examples.
[
  {
    "Molecule": "O=C(c1cc(Cc2n[nH]c(=O)c3ccccc23)ccc1F)N1CCN(C(=O)C2CC2)CC1 + Cc1ccccc1N=Nc1ccc(NC(=O)c2ccnn2C)c(C)c1",
    "Readout Units": "%",
    "viability, T/C": 90
  },
  {
    "Molecule": "COc1cc(C2c3cc4c(cc3C(OC3OC5COC(C)OC5C(O)C3O)C3COC(=O)C23)OCO4)cc(OC)c1O (stereo unspecified) + Cc1ccccc1N=Nc1ccc(NC(=O)c2ccnn2C)c(C)c1",
    "Readout Units": "%",
    "viability, T/C": 71
  },
  {
    "Molecule": "O=C(C=Cc1cccc(S(=O)(=O)Nc2ccccc2)c1)NO + Cc1ccccc1N=Nc1ccc(NC(=O)c2ccnn2C)c(C)c1",
    "Readout Units": "%",
    "viability, T/C": 68.2
  },
  {
    "Molecule": "CC1(C)CCC(CN2CCN(c3ccc(C(=O)NS(=O)(=O)c4ccc(NCC5CCOCC5)c([N+](=O)[O-])c4)c(Oc4cnc5[nH]ccc5c4)c3)CC2)=C(c2ccc(Cl)cc2)C1 + CC(CO)NC(=O)c1cc(-c2ccc(Cl)cc2)nn(-c2cnn(C)c2)c1=O",
    "Readout Units": "%",
    "viability, T/C": 98.7
  },
  {
    "Molecule": "CC(C)c1c(-c2ccccc2)nc2c(C#N)c[nH]n2c1=O + Cc1ccccc1N=Nc1ccc(NC(=O)c2ccnn2C)c(C)c1",
    "Readout Units": "%",
    "viability, T/C": 85.2
  }
]

Param item: CC[C@@]1(O)C(=O)OCc2c1cc1n(c2=O)Cc2cc3c(CN(C)C)c(O)ccc3nc2-1 + CC(CO)NC(=O)c1cc(-c2ccc(Cl)cc2)nn(-c2cnn(C)c2)c1=O ; param system: 292921-168-R-J2-PDC complex spheroid growth; output viability, T/C: 24

----------
System: 292921-168-R-J2-PDC complex spheroid growth
Method Summary: Anticancer human tumor 292921-168-R-J2-PDC cell line growth inhibition [AhR]; active means viability on the fitted dose curve at most 10% of control; inactive means the rest;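 further: spheroids exposed to compounds for seven days after three days of growth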
Stated Conditions: second compound 3.16 µM; first compound 3.16 µM
From the text: Multicellular complex tumor spheroid response to aryl hydrocarbon receptor antagonists in combination with a variety of drugs and investigational agents in selected tumor cell lines […] Compounds. […] If the clinical Cmax for an agent had not been determined, the highest concentration tested was 10 microM (Table 1). […]
Result category, one only: T = active, F = inactive

Please review the entries below; each comes with its answer.
[
  {
    "Compound": "CC1(C)CCC(CN2CCN(c3ccc(C(=O)NS(=O)(=O)c4ccc(NCC5CCOCC5)c([N+](=O)[O-])c4)c(Oc4cnc5[nH]ccc5c4)c3)CC2)=C(c2ccc(Cl)cc2)C1 + Cc1ccccc1N=Nc1ccc(NC(=O)c2ccnn2C)c(C)c1",
    "Assigned Category": "F"
  },
  {
    "Compound": "COc1cccc2c1C(=O)c1c(O)c3c(c(O)c1C2=O)CC(O)(C(=O)CO)CC3OC1CC(N)C(O)C(C)O1 (stereo unspecified) + CC(CO)NC(=O)c1cc(-c2ccc(Cl)cc2)nn(-c2cnn(C)c2)c1=O",
    "Assigned Category": "T"
  },
  {
    "Compound": "O=C(c1cc(Cc2n[nH]c(=O)c3ccccc23)ccc1F)N1CCN(C(=O)C2CC2)CC1 + CC(CO)NC(=O)c1cc(-c2ccc(Cl)cc2)nn(-c2cnn(C)c2)c1=O",
    "Assigned Category": "F"
  },
  {
    "Compound": "COc1cc(C2c3cc4c(cc3C(OC3OC5COC(C)OC5C(O)C3O)C3COC(=O)C23)OCO4)cc(OC)c1O (stereo unspecified) + CC(CO)NC(=O)c1cc(-c2ccc(Cl)cc2)nn(-c2cnn(C)c2)c1=O",
    "Assigned Category": "F"
  },
  {
    "Compound": "NS(=O)(=O)OCC1CC(n2ccc3c(NC4CCc5ccccc54)ncnc32)CC1O (stereo unspecified) + CC(CO)NC(=O)c1cc(-c2ccc(Cl)cc2)nn(-c2cnn(C)c2)c1=O",
    "Assigned Category": "T"
  },
  {
    "Compound": "Nc1ccccc1NC(=O)c1ccc(CNC(=O)OCc2cccnc2)cc1 + CC(CO)NC(=O)c1cc(-c2ccc(Cl)cc2)nn(-c2cnn(C)c2)c1=O",
    "Assigned Category": "F"
  },
  {
    "Compound": "COc1cc(C2c3cc4c(cc3C(OC3OC5COC(C)OC5C(O)C3O)C3COC(=O)C23)OCO4)cc(OC)c1O (stereo unspecified) + Cc1ccccc1N=Nc1ccc(NC(=O)c2ccnn2C)c(C)c1",
    "Assigned Category": "F"
  },
  {
    "Compound": "Nc1ccn(C2OC(CO)C(O)C2(F)F)c(=O)n1 (stereo unspecified) + Cc1cncc(-c2nc(NCCc3c[nH]c4ccccc34)c3ncn(C(C)C)c3n2)c1",
    "Assigned Category": "F"
  }
]

For COc1cc(C2c3cc4c(cc3C(OC3OC5COC(C)OC5C(O)C3O)C3COC(=O)C23)OCO4)cc(OC)c1O (stereo unspecified) + Cc1cncc(-c2nc(NCCc3c[nH]c4ccccc34)c3ncn(C(C)C)c3n2)c1 , which call appears in the assay record?
F

For O=C(C=Cc1cccc(S(=O)(=O)Nc2ccccc2)c1)NO + CC(CO)NC(=O)c1cc(-c2ccc(Cl)cc2)nn(-c2cnn(C)c2)c1=O , which call appears in the assay record?
F

For O=C(c1cc(Cc2n[nH]c(=O)c3ccccc23)ccc1F)N1CCN(C(=O)C2CC2)CC1 + Cc1ccccc1N=Nc1ccc(NC(=O)c2ccnn2C)c(C)c1 , which call appears in the assay record?
F
